Numbers sourced from patent US10167257B2.

# target_desc: IDO (SKOV-3 cells) (Homo sapiens)
# Construct: This assay utilised cancer cells which expressed either TDO or IDO; host or cells: SKOV-3 ovary adenocarcinoma cells, IFNγ-induced
# assay_procedure: IDO cell-based assay (SKOV-3, IFNγ-induced), kynurenine production
# test_conditions: SKOV-3 ovary adenocarcinoma cells, IFNγ 500 ng/ml, 500 μM L-Trp, 48 h, kynurenine by absorbance at 490 nm
parameter_measured: IDO cellular assay (SKOV3) pIC50

compound=Cn1cc(C2(NC(=O)c3cc4cc(Br)ccc4[nH]3)COC2)cn1 value="+++ (+++ = pIC50 ≥5.50)"
compound="Cc1cc(C(C)NC(=O)c2cc3cc(C#N)ccc3[nH]2)no1 (stereo not drawn)" value="+++ (+++ = pIC50 ≥5.50)"
compound=C[C@@H](NC(=O)c1nc2ccccc2o1)c1ccccc1 value="+ (+ = pIC50 4.50-<5.00)"
compound=O=C(NC1(c2ccccc2)COC1)c1cc2c(F)c(Cl)ccc2[nH]1 value="+++ (+++ = pIC50 ≥5.50)"
compound="CC(NC(=O)c1cc2cc(Cl)cnc2[nH]1)c1cnn(C)c1 (stereo not drawn)" value="+ (+ = pIC50 4.50-<5.00)"

Req: For `Cn1cc(C2(NC(=O)c3cc4cc(C#N)ccc4[nH]3)COC2)cn1` , write its IDO cellular assay (SKOV3) pIC50.
Resp: +++ (+++ = pIC50 ≥5.50)

Req: For CC(NC(=O)c1cc2cc(Cl)ccc2[nH]1)C1CCOCC1 (stereo not drawn) , write its IDO cellular assay (SKOV3) pIC50.
Resp: +++ (+++ = pIC50 ≥5.50)

Req: For `O=C(NC1(c2ccccc2)CC1)c1cc2cc(C(F)(F)F)ccc2[nH]1` , write its IDO cellular assay (SKOV3) pIC50.
Resp: +++ (+++ = pIC50 ≥5.50)

====

# target_desc: IDO (SKOV-3 cells) (Homo sapiens, UniProt P14902)
# Construct: This assay utilised cancer cells which expressed either TDO or IDO; host or cells: SKOV-3 ovary adenocarcinoma cells, IFNγ-induced
# Sequence (P14902 whole entry): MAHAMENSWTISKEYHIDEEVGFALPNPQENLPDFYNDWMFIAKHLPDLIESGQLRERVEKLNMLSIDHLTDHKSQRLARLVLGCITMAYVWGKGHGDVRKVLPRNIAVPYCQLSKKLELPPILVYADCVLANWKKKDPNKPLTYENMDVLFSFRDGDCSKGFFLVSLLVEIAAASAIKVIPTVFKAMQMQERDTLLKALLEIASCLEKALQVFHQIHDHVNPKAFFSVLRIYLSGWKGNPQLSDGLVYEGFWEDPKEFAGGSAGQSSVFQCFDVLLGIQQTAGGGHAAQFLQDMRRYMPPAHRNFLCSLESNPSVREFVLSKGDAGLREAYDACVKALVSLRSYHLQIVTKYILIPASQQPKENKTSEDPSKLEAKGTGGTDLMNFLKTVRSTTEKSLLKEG
# assay_procedure: IDO cell-based assay (SKOV-3, IFNγ-induced), kynurenine production
# test_conditions: SKOV-3 ovary adenocarcinoma cells, IFNγ 500 ng/ml, 500 μM L-Trp, 48 h, kynurenine by absorbance at 490 nm
parameter_measured: IDO cellular assay (SKOV3) pIC50

Example compounds with recorded IDO cellular assay (SKOV3) pIC50:
compound=C[C@H](NC(=O)c1cc2c(F)cccc2[nH]1)c1ccccc1 target_desc="IDO (SKOV-3 cells) (Homo sapiens, UniProt P14902)" value="+ (+ = pIC50 4.50-<5.00)"
compound=CS(=O)(=O)Nc1ccc2cc(C(=O)NC3(c4ccccc4)CC3)[nH]c2c1 target_desc="IDO (SKOV-3 cells) (Homo sapiens, UniProt P14902)" value="+ (+ = pIC50 4.50-<5.00)"
compound="CC(NC(=O)c1cc2cc(Cl)ccc2[nH]1)c1cnn(-c2ccccc2)c1 (stereo not drawn)" target_desc="IDO (SKOV-3 cells) (Homo sapiens, UniProt P14902)" value="+++ (+++ = pIC50 ≥5.50)"
compound=O=C(NC1(c2ccccc2)COC1)c1cc2cc(C(F)(F)F)ccc2[nH]1 target_desc="IDO (SKOV-3 cells) (Homo sapiens, UniProt P14902)" value="+++ (+++ = pIC50 ≥5.50)"
compound=Cn1cc(C2(NC(=O)c3cc4cc(Cl)ccc4[nH]3)CCCCC2)cn1 target_desc="IDO (SKOV-3 cells) (Homo sapiens, UniProt P14902)" value="+++ (+++ = pIC50 ≥5.50)"
compound=CCc1ccc2[nH]c(C(=O)N[C@H](C)c3ccccc3)cc2c1 target_desc="IDO (SKOV-3 cells) (Homo sapiens, UniProt P14902)" value="+++ (+++ = pIC50 ≥5.50)"
compound=O=C(NC1(c2ccccc2)COC1)c1cc2cc(Cl)cc(F)c2[nH]1 target_desc="IDO (SKOV-3 cells) (Homo sapiens, UniProt P14902)" value="+++ (+++ = pIC50 ≥5.50)"
compound="CC(NC(=O)c1cc2cc(Cl)ccc2[nH]1)c1ncc[nH]1 (stereo not drawn)" target_desc="IDO (SKOV-3 cells) (Homo sapiens, UniProt P14902)" value="+ (+ = pIC50 4.50-<5.00)"

Note: attention shifts to another entry.
Req: For `O=C(NCc1ccc(F)cc1Cl)c1cc2ccccc2[nH]1` , write its IDO cellular assay (SKOV3) pIC50.
Resp: + (+ = pIC50 4.50-<5.00)
